- assay-name: soluble fraction after stress (log2 fold change); higher = more stays soluble; pooled small domains, quantitative proteomics
- condition-details: stress: pH 4
Recorded soluble fraction (log2) determines the label; the label ranges are bottom range: < -0.7; center range: ≥ -0.7 and < -0.02; top range: ≥ -0.02

Reference set, count: 4
seq_string=HMSEKELTDLIERIKERRLKLEMSYQDLSDATGISKSTLQRYETGYIKKVPINQIEILAKALHTTPSYLMG answer_label="top range"
seq_string=HMDAQEAAWARKMMETLPEKQKLSVALRIEEGLSFKEIGEIIGSSEGAARVNYFHGIRRLRELL answer_label="bottom range"
seq_string=HMVQPSAAVRAHPVGAFVEQRQGLSDDQILALQKKWNEGIYARIQGTRWFLFSKDTPAVTSLLLVPDLP answer_label="center range"
seq_string=HMNESEALIARIENLPPIEDLTEKHAEEVKALMTVYSKLKMSDRILVTNYGVLKKDFDALVKKGFLTNED answer_label="top range"

Problem: GET /class?item= HMNQKVRQLLSQAQAEMERKNYKQAIKLLDQALAIEPHSGELHFMKGYAWMSMGEFEKALESLYEARNYA
Solution: bottom range

Problem: GET /class?item= HMGQKETIVDLLKTNGTMTQLALAEAIYGDKNHGPNIYSVLMGRVNSGAVLRTGSQPAYYSLSG
Solution: top range

Problem: GET /class?item= HMFMSKTAMVAIISEADKYGLFNIPEGLSVEKTADEIFEGHIEVDFDKLKNELDFVYKNEALEKQFQEN
Solution: bottom range

Problem: GET /class?item= HMTKDEIIIQSIIDAAKKLMQQYGLNKTTMEDIAKEAGKGKSTLYHYFKSKEEIFDQVINQEID
Solution: bottom range

Problem: GET /class?item= HMRKTLASTAYDSIKAGIVSGEINNNLLLSENTLAKILNMSRTPIREAIKRLEAESYLKSVDGVGLIVQE
Solution: center range

Problem: GET /class?item= HMSFNISPTKKLILELIMNGTAAVEAIAVKAGISKGMAYNHLRELRSMGYITDEGGYKITDSGRLAV
Solution: center range

Problem: GET /class?item= HMNNENELSSIISKVLEENPAEKERFLNGEKKLAGFFMGKIMKATKGTADPKKAAQLLNEIL
Solution: top range
